Test system: B16-F10 cells
assay_procedure: Cell proliferation assay (CellTiter-Glo) in B16-F10 cells with IFN-gamma
Format: cell-based
test_settings: 120 h, mouse IFN-gamma 10 ng/mL, read-out: PTPN2 Prolif 5d B16F10 EC50
Field 'label' (enum: Met / Not met). Set to Met when EC50 is strictly under 4 µM; else Not met.

Check if EC50 falls below 4 µM for Cc1ncc(C)c(NCc2cc(O)c(N3CC(=O)NS3(=O)=O)c(F)c2)n1 [EXAMPLE 27] .
Not met

Check if EC50 falls below 4 µM for O=C1CN(c2c(O)cc(CNc3cnccc3-c3ccc(C(F)(F)F)cc3)cc2F)S(=O)(=O)N1 [EXAMPLE 30] .
Not met

Check if EC50 falls below 4 µM for CCN(Cc1cc(O)c(N2CC(=O)NS2(=O)=O)c(F)c1)c1nc(C)cc(-c2ccccc2C#N)n1 [EXAMPLE 14] .
Not met

Check if EC50 falls below 4 µM for N#Cc1cncc(NCc2cc(O)c(N3CC(=O)NS3(=O)=O)c(F)c2)c1 [EXAMPLE 4] .
Met

Check if EC50 falls below 4 µM for CC(C)c1cncc(NCc2cc(O)c(N3CC(=O)NS3(=O)=O)c(F)c2)c1 [EXAMPLE 13] .
Met

Check if EC50 falls below 4 µM for Cc1cnc(C)c(NCc2cc(O)c(N3CC(=O)NS3(=O)=O)c(F)c2)n1 [EXAMPLE 18] .
Not met

Check if EC50 falls below 4 µM for Cc1cc(NCc2cc(O)c(N3CC(=O)NS3(=O)=O)c(F)c2)cc(C)n1 [EXAMPLE 2] .
Not met

Check if EC50 falls below 4 µM for COc1cnc(C)c(NCc2cc(O)c(N3CC(=O)NS3(=O)=O)c(F)c2)n1 [EXAMPLE 21] .
Not met

Check if EC50 falls below 4 µM for Cc1ncc(NCc2cc(O)c(N3CC(=O)NS3(=O)=O)c(F)c2)nc1C [EXAMPLE 19] .
Met

Check if EC50 falls below 4 µM for Cc1nccc(NCc2cc(O)c(N3CC(=O)NS3(=O)=O)c(F)c2)n1 [EXAMPLE 24] .
Not met

Check if EC50 falls below 4 µM for Cc1cncc(NCc2cc(O)c(N3CC(=O)NS3(=O)=O)c(F)c2)n1 [EXAMPLE 16] .
Met

Check if EC50 falls below 4 µM for O=C1CN(c2c(O)cc(CNc3ccc(-c4ccccc4)nc3)cc2F)S(=O)(=O)N1 [EXAMPLE 6] .
Not met

Check if EC50 falls below 4 µM for Cc1ccnc(C)c1NCc1cc(O)c(N2CC(=O)NS2(=O)=O)c(F)c1 [EXAMPLE 3] .
Not met

---

Tested on: B16-F10 cells
assay_procedure: Cell proliferation assay (CellTiter-Glo) in B16-F10 cells with IFN-gamma
Assay type: cell-based
test_settings: 120 h, mouse IFN-gamma 10 ng/mL, read-out: PTPN2 Prolif 5d B16F10 EC50
experimental_readout: log10 EC50 (log10 of the value in µM)
Lab note - EC50 converted to log10 from values in µM.

Item `COc1cncc(NCc2cc(O)c(N3CC(=O)NS3(=O)=O)c(F)c2)n1` has what recorded log10 EC50?
0.19

Item `N#Cc1cnc(NCc2cc(O)c(N3CC(=O)NS3(=O)=O)c(F)c2)nc1` has what recorded log10 EC50?
0.11

Item `Cc1ccc(NCc2cc(O)c(N3CC(=O)NS3(=O)=O)c(F)c2)nn1` has what recorded log10 EC50?
-0.20

Item `Cc1cc(C)nc(NCc2cc(O)c(N3CC(=O)NS3(=O)=O)c(F)c2)n1` has what recorded log10 EC50?
0.68

Item `O=C1CN(c2c(O)cc(CNc3cncc(C(F)(F)F)c3)cc2F)S(=O)(=O)N1` has what recorded log10 EC50?
0.50

Item `Cc1cc(NCc2cc(O)c(N3CC(=O)NS3(=O)=O)c(F)c2)ncn1` has what recorded log10 EC50?
-0.33

Item `COc1nc(NCc2cc(O)c(N3CC(=O)NS3(=O)=O)c(F)c2)cnc1C` has what recorded log10 EC50?
1.05

Item `O=C1CN(c2c(O)cc(CNc3ccc(C4CC4)nc3)cc2F)S(=O)(=O)N1` has what recorded log10 EC50?
-0.39

Item `CN(C)c1ccc(NCc2cc(O)c(N3CC(=O)NS3(=O)=O)c(F)c2)cn1` has what recorded log10 EC50?
-0.05

Item `Cc1cc(NCc2cc(O)c(N3CC(=O)NS3(=O)=O)c(F)c2)nc(C)n1` has what recorded log10 EC50?
0.34

Item `N#Cc1ncc(NCc2cc(O)c(N3CC(=O)NS3(=O)=O)c(F)c2)cn1` has what recorded log10 EC50?
0.14

Item `COc1ncc(C)c(NCc2cc(O)c(N3CC(=O)NS3(=O)=O)c(F)c2)n1` has what recorded log10 EC50?
1.04

Item `CC(C)c1cnc(NCc2cc(O)c(N3CC(=O)NS3(=O)=O)c(F)c2)nc1` has what recorded log10 EC50?
0.78
